Below: a set of entries, each annotated with reported melting point.

Please review the following examples before continuing.
> print(dat)
                                   compound  quantity.kind   result.value
1              CC(=O)c1ccc(-c2ccccc2)c(F)c1  melting point  97 to 97.5 °C
2  CCCCNC(=O)Nc1ccc(S(C)=O)cc1C(=O)NCC1CCN(C(c2ccccc2)c2ccccc2)CC1 (centres undefined)  melting point  178 to 179 °C

Input line: If you can, please state the reported melting point value of `Cc1cn(-c2cc(NC(=O)c3cccc4cc(Oc5ccnc(N)c5)ccc34)cc(C(F)(F)F)c2)cn1` .
Output line: 236 to 239 °C

Input line: Also check `CCOC(=O)c1cc(C(=O)c2ccc(C)cc2)n(C)c1C`
Output line: 98 to 100 °C

Input line: Also check `COc1cc(C(C)C)c(NC(=O)CN2CCN(CCSc3nc4cccc(C(F)(F)F)c4o3)CC2)c(C(C)C)c1`
Output line: 122 to 123 °C

Input line: Also check `O=C(N[C@H]1CC[C@H](CCN2CCC(c3cccc4c3CCO4)CC2)CC1)C1CC1`
Output line: 208 °C

Input line: Also check `CCN(CC)CCNC(=O)c1cc(Cl)c(N)cc1OCC(=O)Cc1ccccc1`
Output line: 138 to 139 °C

Input line: Also check Clc1ccc(-c2ccc(C(Cl)Cn3cncn3)cc2)cc1 (centres undefined)
Output line: 118 °C

Input line: Also check `N#Cc1cc([N+](=O)[O-])ccc1-c1ccccc1`
Output line: 111 to 115 °C

----------
Below: a set of entries, each annotated with reported melting point.

Please review the following examples before continuing.
> print(dat)
                                   compound  quantity.kind   result.value
1  CCCCc1oc2ccccc2c1C(=O)Nc1ccc(-c2ccc(OCC(=O)O)cc2)cc1  melting point  225 to 227 °C
2                  O=Cc1c(Cl)nc2n(c1=O)CCS2  melting point  152 to 154 °C

Input line: If you can, please state the reported melting point value of `CCc1cccc(CC)c1NC(=S)NC(C)(C)CC` .
Output line: 85 to 87 °C

Input line: Also check `O=C(O)c1cc(F)c(F)cc1Nc1ccc(F)cc1F`
Output line: 215 to 216 °C

Input line: Also check `O=c1c2cc(O)ccc2nc(CSc2ncnc3[nH]cnc23)n1-c1ccccc1Cl`
Output line: 186 to 214 °C

Input line: Also check `CC(C)(C)OC(=O)NCCOC(=O)COc1ccc(CCCCNC(N)=NC(=O)c2nc(Cl)c(N)nc2N)cc1`
Output line: 80 to 82 °C

Input line: Also check CN1CCCCC(C2=CC(=O)CCC2)C1=O (stereo unspecified)
Output line: 109 to 110 °C

Input line: Also check `CCOC(=O)c1ccc(C(F)(F)F)cc1N`
Output line: 42 to 43 °C

----------
Below: a set of entries, each annotated with reported melting point.

Please review the following examples before continuing.
> print(dat)
                                    molecule   result.value
 1  CN1CCN(Cc2c(-c3cc(C(C)(C)C)c(O)c(C(C)(C)C)c3)nc3n2CCS3)CC1  211 to 212 °C
 2  O=C1CC2(CCCC2)CC(=O)N1CCCCN1CCN(c2nsc3ccccc23)CC1  128 to 130 °C
 3  COC(=O)c1ccc(C(=O)N(SSN(C(=O)c2ccc(C(=O)OC)cc2)c2ccccc2)c2ccccc2)cc1  276 to 278 °C
 4  CCc1cc(-c2cccnc2)nn1-c1ccc(NCc2ccc(OCCCC#N)cc2)cc1  131 to 132 °C
 5      CC(=CC=Cc1ccccc1)C(=O)C1OCC(C)(C)CO1  122 to 125 °C
 6         Cc1nc2ncnn2c2c1CCN2c1c(Cl)cccc1Cl  192 to 194 °C
 7            O=[N+]([O-])c1cccnc1NCc1ccccc1    81 to 82 °C
 8     N#Cc1c(N2CCc3ccccc3CC2)nc2n(c1=O)CCN2       > 200 °C
 9  Cc1ccc2[nH]c(C(=O)c3ccc(Cl)cc3)c(CC(=O)O)c2c1  194 to 197 °C
10         Cn1c([N+](=O)[O-])cnc1-c1nnc(N)s1  266 to 268 °C

Input line: If you can, please state the reported melting point value of CC(=O)OCCCCCC1CC2=CC(=O)CCC2C2C(F)CC3(C)C(=O)CCC3C12 (stereo not given) .
Output line: 78.4 °C

Input line: Also check `CC1(C)CNc2cc(C(F)(F)F)ccc2C1=O`
Output line: 121 to 122 °C

Input line: Also check `O=C(NC(=O)c1c(Cl)cccc1Cl)Nc1noc(-c2ccc(C(F)(F)F)cc2)c1Cl`
Output line: 237 to 238 °C

----------
Below: a set of entries, each annotated with reported melting point.

Please review the following examples before continuing.
> print(dat)
                                    compound     result.value
 1  Nc1ccc(CC(NC(=O)C(c2ccccc2)c2ccccc2)c2ccccc2)cc1 (stereo not given)    161 to 163 °C
 2  Cc1[nH]c(=O)c2c(ccc3nc(Nc4c(Cl)cccc4Cl)n(C)c32)c1CCO         > 300 °C
 3  CCn1cc(C(=O)OC)c(=O)c2cc(F)c(N3CCNCC3)cc21    179 to 181 °C
 4  OCCCc1cn(-c2ccc(C(F)(F)F)cn2)nc1OCc1ccccc1      79 to 81 °C
 5                     O=C(O)CCCCOc1ccccc1Cl      71 to 72 °C
 6       CN(C)C=Cc1[nH]c(=O)ccc1C(=O)c1ccco1    238 to 240 °C
 7  CCOC(=O)c1cc2c(nc(C)n2C)c(O)c1CCC(=O)c1ccccc1    205 to 206 °C
 8  COc1cc(C)nc(NC(=O)NS(=O)(=O)c2cccc3nc(C)sc23)n1    178 to 180 °C
 9  Cc1cccc(NC(=O)NC2N=C(C3CCCC3)c3ccccc3N(Cc3ncccc3C)C2=O)c1 (racemic)    198 to 199 °C
10  CNC(=O)C(CC(=O)N(CC(=O)NO)CC(C)C)CC(C)C (stereo not given)  60.5 to 61.5 °C

Input line: If you can, please state the reported melting point value of CCCNC(=O)C(C)Cc1ccc2c(CCC)cn(Cc3ccc(C(=O)O)cc3OC)c2c1 (stereo not given) .
Output line: 90 to 98 °C

Input line: Also check O=C(NC1CCCc2cc(C(=O)Nc3ccncc3)ccc21)OCc1ccccc1 (stereo not given)
Output line: 157 to 159 °C

Input line: Also check `Clc1cnc2c(Cl)cccc2n1`
Output line: 137 to 138 °C

Input line: Also check `Cc1cnn(-c2ncc(C(=O)N3Cc4cccn4Cc4ccccc43)c(C(F)(F)F)n2)c1`
Output line: 214 to 217 °C

Input line: Also check `CCCCCCCCCCOc1ccc(C(=O)Nc2ccc(C(=O)O)cc2)cc1C12CC3CC(CC(C3)C1)C2`
Output line: 247 to 248 °C

Input line: Also check `Cc1sc(NC(=O)OC(C)(C)C)c(NC(=O)OC(C)(C)C)c1C#N`
Output line: > 300 °C

Input line: Also check `Cn1c(=O)c2c(ncn2CCCCCCO)n(C)c1=O`
Output line: 80 °C

Input line: Also check `c1ccc(CN2CCN(c3nc4c(c(N5CCOCC5)n3)SCCC4)CC2)cc1`
Output line: 125 °C

Input line: Also check CC(=O)OCC1CC(n2c(I)nc3cc(Cl)c(Cl)cc32)C(OC(C)=O)C1OC(C)=O (stereo not given)
Output line: 152 to 153 °C

Input line: Also check `CCCCCCN1CCN(Cc2ccc(NC(N)=S)cc2)C(=O)C1=O`
Output line: 197 to 198 °C

----------
Quantity Kind: melting point

Please review the following examples before continuing.
> print(dat)
                                   molecule  quantity.kind   result.value
1             N#Cc1cc(F)c(F)cc1[N+](=O)[O-]  melting point          75 °C
2  O=C(c1ccccc1F)c1cc2c(c(Cl)c1Cl)OC(CO)C2 (stereo unspecified)  melting point  148 to 150 °C
3  COc1cc2nc(N3CCN(C(=O)c4ccco4)CC3)[nH]c2cc1OC  melting point  143 to 145 °C
4  Cn1cc(-c2ccnc(N[C@H]3CC[C@H](O)CC3)n2)c2ccccc21  melting point  194 to 195 °C

Input line: If you can, please state the reported melting point value of `CCN(CC)c1nc(C#N)c(C#N)nc1Cc1ccccc1` .
Output line: 73 to 74 °C

Input line: Also check O=c1c2c(n(-c3ccccc3)c3ncccc13)OC(CI)C2 (stereo unspecified)
Output line: 178 to 180 °C

Input line: Also check Cc1cc2c(c3c1NC(=O)CC3(C)C)OC(CO)C2 (stereo unspecified)
Output line: 165 to 166 °C

Input line: Also check `N[C@H]1CCN(C(=O)c2cc(C(F)(F)F)cc(C(F)(F)F)c2)[C@H](Cc2ccc(Cl)cc2)C1`
Output line: 79 to 81 °C

Hello, the source for this data is a melting point compilation (Tetko et al.; mined from patent text by program, amines drawn as free bases though some values may be those of a salt), in case you need it.
